# TEST_TARGET: human JAK2 (Homo sapiens)
# Sequence (O60674 849-1124 limits assumed): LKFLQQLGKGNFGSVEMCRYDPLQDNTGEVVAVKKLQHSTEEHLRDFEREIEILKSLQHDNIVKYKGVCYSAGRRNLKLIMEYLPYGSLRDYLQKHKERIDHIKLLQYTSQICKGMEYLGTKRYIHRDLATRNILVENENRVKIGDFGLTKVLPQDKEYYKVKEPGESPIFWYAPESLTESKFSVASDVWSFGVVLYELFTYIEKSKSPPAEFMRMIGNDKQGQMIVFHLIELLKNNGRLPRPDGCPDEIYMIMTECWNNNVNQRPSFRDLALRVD
pIC50: −log10 of the molar value.
MEASURED_PROPERTY: pIC50

{"columns": ["STRUCTURE", "TEST_TARGET", "pIC50"],
 "data": [
  ["C=CC(=O)Nc1ccc(Sc2ccnc(Nc3cccc(S(=O)(=O)N4CCN(C)CC4)c3)n2)cc1", "human JAK2 (Homo sapiens)", "< 6.00"],
  ["C=CC(=O)Nc1ccc(Sc2nc(Nc3ccc(NS(C)(=O)=O)c(OC)c3)ncc2C)cc1", "human JAK2 (Homo sapiens)", "< 6.00"],
  ["C=CC(=O)Nc1ccc(Sc2ccnc(Nc3cccc(CO)c3)n2)cc1", "human JAK2 (Homo sapiens)", "< 6.00"]
]}

Field: next molecule
Result for C=CC(=O)Nc1ccc(Sc2ccnc(Nc3ccc(N4CCN(C)CC4)cc3)n2)cc1 , tested on human JAK2 (Homo sapiens), pIC50: < 6.00

These measurements were taken from patent US8846704B2.
